Hey, just so you know, these numbers are from patent US20220396632A1.

- measured_on: T1, Biotin Y46,48,51(SO3) PSGL-1(42-62) peptide (human, sulfotyrosine at Y46, Y48 and Y51; C-terminal Lys-biotin)
- T1 construct: also called fully sulfated N-terminal PSGL-1 peptide
- T1 peptide: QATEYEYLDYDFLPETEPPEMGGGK
- procedure_text: ELISA, immobilized biotin peptide
Let's look at some binders and their measured pEC50.
In plain terms, pEC50 is the concentration in mol/L turned into minus its base-10 logarithm.

- 19I01 (antibody, V domains shown, From mouse immunisation; only variable domains given; also called 19101) VH: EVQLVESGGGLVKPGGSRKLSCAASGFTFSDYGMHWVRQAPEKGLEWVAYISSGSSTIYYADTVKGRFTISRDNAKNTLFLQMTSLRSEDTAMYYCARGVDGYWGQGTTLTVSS VL: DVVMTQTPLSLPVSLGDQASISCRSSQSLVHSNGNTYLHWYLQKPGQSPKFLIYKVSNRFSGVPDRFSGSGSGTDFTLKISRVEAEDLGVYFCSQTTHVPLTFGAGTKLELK: 9.07

Now look at this entry.
# input Retrieve pEC50 measured for 09D04 (antibody, IgG4, V domains shown) VH: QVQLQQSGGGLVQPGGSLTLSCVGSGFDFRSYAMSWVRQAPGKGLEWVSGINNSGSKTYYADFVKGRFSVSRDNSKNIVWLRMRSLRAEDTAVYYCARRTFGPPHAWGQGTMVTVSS VL: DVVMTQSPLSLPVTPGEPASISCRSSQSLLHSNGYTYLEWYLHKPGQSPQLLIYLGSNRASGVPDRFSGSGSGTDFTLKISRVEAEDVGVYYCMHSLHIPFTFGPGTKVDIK and print it.
# output 10.15
